Just for reference, PubChem BioAssay (Tox21) is where these values come from.

- targetOfAssay: Nuclear receptor subfamily 1 group I member 2 (Homo sapiens)
- method: CYP3A4 induction through human pregnane X receptor (PXR) by small molecules, qHTS assay (AID 1346984); further: nearly all actives have a fitted effect of over 40% in size
- testParameters: DPX-2 HepG2 PXR, CYP3A4-luciferin luminescence, 24 h; series mostly up to 46.1 µM
Results filed as inconclusive are left out. Active and inactive are the calls of the source. The call rests on the fitted dose curve; in most records, active means well fitted activation curve with a large enough effect in the repeat runs; inconclusive means weak or mixed curves; inactive means no such curve, though single readings can be large or run the other way.
Classes used: yes for active, no for inactive

1. N#C/C(=C1\SCC(c2ccccc2Cl)S1)n1ccnc1 (centres undefined) ... no
2. O=C(Nc1ccc([N+](=O)[O-])cc1)Nc1ccc([N+](=O)[O-])cc1 ... no
3. CC(C)(C)CC(C)(C)c1ccc(OCCO)cc1 ... yes
4. CCc1nn(CCCN2CCN(c3cccc(Cl)c3)CC2)c(=O)n1CCOc1ccccc1 ... no
